# MEASURED_TARGET: human progesterone receptor-A [PRA] isoform (Homo sapiens)
# Construct: host or cells: insect SF21 cells (baculovirus)
# EXPERIMENT_SUMMARY: Radioligand binding with human progesterone receptor cytosol ([3H]-progesterone competition)
# CONDITION_NOTES: PRA cytosol expressed in insect SF21 cells, [3H]Prog ~0.8 nM, 4° C. overnight; Ki by Cheng-Prusoff, KL ~4.5 nM; read-out: Ki (nM) PR
With a cut-off of 900 nM, any Ki strictly below it is called rule met; any Ki meeting it or above is called rule not met.

>>> df
                                   compound  assigned_label
0  COc1c(O)ccc2c1-c1ccc3c(c1C(C(C)C)O2)C(C)=CC(C)(C)N3 (centres unmarked)    rule not met
1  COc1cccc2c1-c1ccc3c(c1[C@H]([C@H]1C=C(CO)CCC1)O2)C(C)=CC(C)(C)N3 [Example 155]    rule not met
2  COc1c(O)ccc2c1-c1ccc3c(c1C(=Cc1ccccc1)O2)C(C)=CC(C)(C)N3 [Example 406]        rule met
3  COc1c(O)ccc2c1-c1ccc3c(c1[C@H](C1CCCC1)O2)C(C)=CC(C)(C)N3        rule met
4  COc1cccc2c1-c1ccc3c(c1C(CC(C)=O)O2)C(C)=CC(C)(C)N3 (centres unmarked)    rule not met
5  COc1c(O)ccc2c1-c1ccc3c(c1C(c1ccc(F)c(F)c1)O2)C(C)=CC(C)(C)N3 (centres unmarked)    rule not met
6  COc1c(O)ccc2c1-c1ccc3c(c1C(c1cc(F)cc(F)c1)O2)C(C)=CC(C)(C)N3 (centres unmarked)        rule met
7  C=CCC1Oc2c(C=C)ccc(OC)c2-c2ccc3c(c21)C(C)=CC(C)(C)N3 (centres unmarked)        rule met

----------
# MEASURED_TARGET: human progesterone receptor-A [PRA] isoform (Homo sapiens, UniProt P06401)
# Construct: host or cells: insect SF21 cells (baculovirus)
# Sequence (P06401 165-933): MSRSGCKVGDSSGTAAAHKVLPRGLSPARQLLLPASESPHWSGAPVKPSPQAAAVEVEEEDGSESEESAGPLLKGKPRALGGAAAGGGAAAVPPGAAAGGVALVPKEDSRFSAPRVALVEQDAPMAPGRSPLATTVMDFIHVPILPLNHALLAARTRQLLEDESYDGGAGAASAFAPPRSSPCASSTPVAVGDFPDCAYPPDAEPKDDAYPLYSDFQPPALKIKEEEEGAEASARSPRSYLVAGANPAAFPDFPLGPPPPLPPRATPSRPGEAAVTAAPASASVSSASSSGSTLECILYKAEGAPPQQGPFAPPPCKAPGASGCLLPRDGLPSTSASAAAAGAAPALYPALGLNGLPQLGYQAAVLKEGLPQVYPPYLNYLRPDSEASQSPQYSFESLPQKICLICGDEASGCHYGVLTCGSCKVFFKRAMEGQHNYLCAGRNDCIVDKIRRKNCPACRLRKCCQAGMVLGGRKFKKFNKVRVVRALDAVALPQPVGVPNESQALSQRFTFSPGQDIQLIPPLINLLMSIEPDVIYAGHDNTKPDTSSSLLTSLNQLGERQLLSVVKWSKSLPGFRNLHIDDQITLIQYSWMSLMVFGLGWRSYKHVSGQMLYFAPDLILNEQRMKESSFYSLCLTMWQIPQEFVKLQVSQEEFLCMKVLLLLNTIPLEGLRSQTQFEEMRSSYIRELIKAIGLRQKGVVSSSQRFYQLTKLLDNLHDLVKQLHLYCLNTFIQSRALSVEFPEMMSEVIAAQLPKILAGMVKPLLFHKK
# EXPERIMENT_SUMMARY: Radioligand binding with human progesterone receptor cytosol ([3H]-progesterone competition)
# CONDITION_NOTES: PRA cytosol expressed in insect SF21 cells, [3H]Prog ~0.8 nM, 4° C. overnight; Ki by Cheng-Prusoff, KL ~4.5 nM; read-out: Ki (nM) PR
Reported Ki by item:
ASSAY_READOUT: Ki (nM)

In [3]: df
Out[3]:
                                   molecule  unit_annotation  op  measurement
0  COc1cccc2c1-c1ccc3c(c1C(C1C=CCC(C)(C)C1)O2)C(C)=CC(C)(C)N3 (mixture of isomers)               nM   =         4870
1  C=CCC1Oc2ccc(OC(=O)CCC(=O)N(C)C)c(Cl)c2-c2ccc3c(c21)C(C)=CC(C)(C)N3 (racemic)               nM   =         11.6
2  CC1=CC(C)(C)Nc2ccc3c(c21)[C@@H]([C@H]1C=CCC1)Oc1ccc(O)c(Cl)c1-3               nM   =         5010
3  C=CCC1Oc2cccc(CO)c2-c2ccc3c(c21)C(C)=CC(C)(C)N3 (centres unmarked) [Example 329]               nM   =          192
4  C=CCC1Oc2c(C(C)=O)ccc(OC)c2-c2ccc3c(c21)C(C)=CC(C)(C)N3 (centres unmarked)               nM   =         4460
5  CC1=CC(C)(C)Nc2ccc3c(c21)C(c1cc(Cl)cc(Cl)c1)Oc1ccc(O)c(Cl)c1-3 (centres unmarked)               nM   =          297
6  CCC1Oc2ccc(O)c(OC)c2-c2ccc3c(c21)C(C)=CC(C)(C)N3 (centres unmarked)               nM   =          156
7  COc1cccc2c1-c1ccc3c(c1C(C1CCC=C(CO)C1)O2)C(C)=CC(C)(C)N3 (centres unmarked)               nM   ≥        10000
